- Tested on: MS2 coat protein
- procedure_text: apparent Kd, MS2 coat protein; higher = weaker binding; RNA-MaP array
- test_settings: ligand present: flavin mononucleotide; designed as: OFF switch for flavin mononucleotide
Entries and their measured apparent Kd follow.
Just the number in nM, nothing appended.

Guide cases for apparent Kd, answers given:
>  <sequence_string>
CAUCCUCUUUGACAUGAGGAUCACCCAUGUAUUGCAGUGACCAGAAGGCGUUCCCACAAAGUGGACGAGGAUAUGGAAAAGCCG

>  <unit_of_measure>
nM

>  <apparent Kd>
184

$$$$
>  <sequence_string>
UUGGUCCACAGACAUGAGGAUCACCCAUGUAGUAGUUGAAUGAGAAGGGCACUGGCUUGUCAGGUGCAGGAUAUCAGUCUAUGU

>  <unit_of_measure>
nM

>  <apparent Kd>
106

$$$$
>  <sequence_string>
UGGUCGCAGUGAGGAUAUCCAGUCUAGGCACACGGAGAAGGCACGCGACAUGAGGAUCACCCAUGUAGACGAUAUGCUCCAGGU

>  <unit_of_measure>
nM

>  <apparent Kd>
31.3

$$$$

[Q] # apparent Kd lookup, item UGACUGGUCGGAGGAUAUGGCAACACGUUUUCGCCAGAAGGCCGACAUGAGGAUCACCCAUGUGGGACACUAGGGCGACUUCCU
[A] 35.8

[Q] # apparent Kd lookup, item ACAUGAGGAUCACCCAUGUCUCGGGUGCCGGUUUUUACCUAGAGAAGGUGCGCAACGCUGUCACGCAAGGAUAUCUCACGAACA
[A] 184

[Q] # apparent Kd lookup, item CUUAUGAUCGAGGAUAUCACAAAUGGGCAGCGUUGAGAAGGCGACACAUGAGGAUCACCCAUGUAAUCAACAGU
[A] 15.9

[Q] # apparent Kd lookup, item GCAAAUGCUGAGAAGGUGAUGAAUAACUCCUCGAUGUAACUUGACAUGAGGAUCACCCAUGUCAUCAAGGAUAUCAAAGUGAAC
[A] 16.2

[Q] # apparent Kd lookup, item AUAAGUAUAGGAUAUACAGGUAAGCGUUCUUACCGAUCCAGACAUGAGGAUCACCCAUGUAGAAGGAUACGUCU
[A] 7.87

[Q] # apparent Kd lookup, item UUUGAGGCAGGAUAUAACAUCUUUGACAUGAGGAUCACCCAUGUGGUGUCCCGGUUUUAAUUAGAAGGGCCAGGCU
[A] 727

* * *

- Test system: MS2 coat protein
- procedure_text: apparent Kd, MS2 coat protein; higher = weaker binding; RNA-MaP array; FMN 200 µM where present
- test_settings: designed as: OFF switch for flavin mononucleotide; no ligand
Class 1: apparent Kd at least 30 nM. Class 0: apparent Kd below 30 nM.

>  <sequence_string>
AUGGACGCAGGAUAUACAUGAGGAUCACCCAUGUUAGGGUUAAGAGAAGGAAGGGAGAGUAGAAGGGCGAGAGU

>  <system_under_test>
MS2 coat protein

>  <label_class>
1

$$$$
>  <sequence_string>
CGCAACAUACAGAAGGAGUUAUUGAGAGGUUUACUAGGAUAUGUUCACAUGAGGAUCACCCAUGUCGUUUGGUUUUUUGUUGCG

>  <system_under_test>
MS2 coat protein

>  <label_class>
0

$$$$
>  <sequence_string>
AUGAGAGCAGGAUAUGCAGGUGUGCCGGAAGAAAGAAGAGGACAUGAGGAUCACCCAUGUAGAAGGGCUAACCC

>  <system_under_test>
MS2 coat protein

>  <label_class>
1

$$$$
>  <sequence_string>
AAACAUGUCCGAGGAUAUCUGGAAACAUUUUCAAGAGAAGGCGGACAUGAGGAUCACCCAUGUCUCUCCUCAUCCAAUCCAAGU

>  <system_under_test>
MS2 coat protein

>  <label_class>
0

$$$$
>  <sequence_string>
UAUAGGCUAGGAUAUACAACACUUGGUUCGAAUGUUUGGAGACAUGAGGAUCACCCAUGUAGAAGGAGCAUUUC

>  <system_under_test>
MS2 coat protein

>  <label_class>
1

$$$$

[Q] Reported apparent Kd at or above 30 nM? AAAAAGUCAGGAUAUACAUGAGGAUCACCCAUGUAGCAUACGAAAAAGAGUGUGCAGUGUAGAAGGGACAAAAA
[A] 0

[Q] Reported apparent Kd at or above 30 nM? UGUCGGAGCAGAGGAUAUUACAUGAGGAUCACCCAUGUAUGAACCUAUAGCUGGAAACAGCAAUGUAAGAAGGCUGCUCCGACA
[A] 0

* * *

- System: MS2 coat protein
- procedure_text: apparent Kd, MS2 coat protein; higher = weaker binding; RNA-MaP array
- test_settings: ligand present: flavin mononucleotide; designed as: OFF switch for flavin mononucleotide
Class true: apparent Kd at least 40 nM. Class false: apparent Kd below 40 nM.

[Q] Reported apparent Kd at or above 40 nM? UCUUCCCGCUUAGGAUAUCUUGCUAAUUUGUGUAGAGAAGGAAGUGUAAACAUGAGGAUCACCCAUGUGGCCUCCAGAUAAAGC
[A] false

[Q] Reported apparent Kd at or above 40 nM? UCGAACGGGCAAGGAUAUCGAAGAUCCAAAAUUCGAGAAGGUGCAUGUGAUCGUCCGGUGUCACAUGAGGAUCACCCAUGUCAA
[A] true

[Q] Reported apparent Kd at or above 40 nM? CGUACAGUCGAAGGAUAUUCGCGGGAGUUUGCCGAAGAAGGUCGCUAGUAGGGUGACAUGCUGUGACAUGAGGAUCACCCAUGU
[A] true

* * *

Entries and their measured apparent Kd follow.
- Test system: MS2 coat protein
- procedure_text: apparent Kd, MS2 coat protein; higher = weaker binding; RNA-MaP array; FMN 200 µM where present
- test_settings: ligand present: flavin mononucleotide; designed as: OFF switch for flavin mononucleotide
Just the number in nM, nothing appended.

Guide cases for apparent Kd, answers given:
>  <sequence_string>
GUGGUACAUGAGGAUCACCCAUGUUAGGAUAUCGCGUGAGGUUUUACUUCCGCACGCGCGAGAAGGGACGUCUU

>  <readout_number>
29.5

$$$$
>  <sequence_string>
CCAGCGUGUGUGAGGAUAUGCUGGUCCUUGGAUCAGCAGAAGGCACAUGAGGAUCACCCAUGUGAGUACGUUGG

>  <readout_number>
59.4

$$$$
>  <sequence_string>
GGAAACUACGAGAAGGACAUGUGGUCCUUCAGUUACAUGAGGAUCACCCAUGUAGGAUAUCGUAGUUUCAGGAUCGUGAGAUCA

>  <readout_number>
10.7

$$$$
>  <sequence_string>
UUCUUGCAAGGAUAUGAUUUAAGUAACAUGAGGAUCACCCAUGUUUUUCCGUUGUUAUGUUCAGAAGGUGCGUGAU

>  <readout_number>
63.3

$$$$
>  <sequence_string>
UUAUUGUAUGUAGGAUAUGCAUAUUAUUAUUAUGCAGAAGGACAUGAGGAUCACCCAUGUAUAUUAUUAUUAUAUAUUAUAUAU

>  <readout_number>
60.9

$$$$
>  <sequence_string>
AUGAGAGCAGGAUAUGCAGGUGUGCCGGAAGAAAGAAGAGGACAUGAGGAUCACCCAUGUAGAAGGGCUAACCC

>  <readout_number>
19.8

$$$$
>  <sequence_string>
CUAUUCCGAGGAUAUACAUGAGGAUCACCCAUGUCGGGCCUCCGCGUUUAGCGCCUCAGUAGAAGGCGGGUUUC

>  <readout_number>
25.4

$$$$
>  <sequence_string>
AAAAACGGAGGAUAUACAAAUUAAGGAAGAAAACACGAAAAACAUGAGGAUCACCCAUGUAGAAGGCCGGAAAA

>  <readout_number>
28.2

$$$$
>  <sequence_string>
UUUAUGUCAGGAUAUACAUGAGGAUCACCCAUGUAUAUCUAAAAAUAUACAUGGGAAUGUAGAAGGGACCUCCU

>  <readout_number>
46.3

$$$$
>  <sequence_string>
AAAUCCGAAGGAUAUACAUCAAAAGCAAACUGACCCUCACGACAUGAGGAUCACCCAUGUAGAAGGUUGGAAAU

>  <readout_number>
18.1

$$$$

[Q] # apparent Kd lookup, item AAAAAACAUGAGGAUCACCCAUGUGAGGAUAUGAUGAAAGAUUGAAAAAGGUUGAAAGUCAGAAGGUAUGUGAA
[A] 59.7

* * *

Entries and their measured apparent Kd follow.
- System: MS2 coat protein
- procedure_text: apparent Kd, MS2 coat protein; higher = weaker binding; RNA-MaP array; FMN 200 µM where present
- test_settings: designed as: OFF switch for flavin mononucleotide; no ligand
Just the number in µM, nothing appended.

Guide cases for apparent Kd, answers given:
>  <sequence_string>
GUGCGGAACCUAGGAUAUCCGACAUGGACAGGUGGUAAGUCUCCCACAUGAGGAUCACCCAUGUAGGAGAAGGAGGAUCACGGG

>  <apparent Kd, µM>
0.00684

$$$$
>  <sequence_string>
UAUAUGUAUGUAGGAUAUGGUAUAUAAAAUAUACCAGAAGGACAUGAGGAUCACCCAUGUAUGAAAUUCCAUAAUAACCGUGUA

>  <apparent Kd, µM>
0.0113

$$$$
>  <sequence_string>
CGCUAAUAAAUAGUAAUAAAAGUACAGGAUAUGUUACAUGAGGAUCACCCAUGUAUUGGGUAAGAACAGAAGGGUAUAUUAGCG

>  <apparent Kd, µM>
0.153

$$$$
>  <sequence_string>
AAGUCGAGCGUGAGGAUAUCGACCGGACGACCCAUCGAGAAGGCACAUGAGGAUCACCCAUGUGAUUCAGCUCA

>  <apparent Kd, µM>
0.0169

$$$$
>  <sequence_string>
GUCAGCUCGUGAGGAUAUACAUGAUAGAUCGAUUAAUUAAUUAAUUUAACAUGAGGAUCACCCAUGUAGAAGGUACGAGCUGAC

>  <apparent Kd, µM>
0.052

$$$$

[Q] # apparent Kd lookup, item UUCAGCUCGUCAGGAUAUACGUCACUGCUUCGGCAGUGUGGUAAGAUCACAUGAGGAUCACCCAUGUAGAAGGGACGAGCUGAG
[A] 0.0123

[Q] # apparent Kd lookup, item GUAGAGUAGUGAGGAUAUACGAGUUCGAUAGAACGGCGAUCCAUUAAUACAUGAGGAUCACCCAUGUAGAAGGCACUUCUCUAC
[A] 0.0064

[Q] # apparent Kd lookup, item ACACAGAAAGGAUAUGCAGGGAGAUAAAGCUUCUUGUUCCAACAUGAGGAUCACCCAUGUAGAAGGUUCGAAAA
[A] 0.032

[Q] # apparent Kd lookup, item UCCUUAUCGGUCAGGAUAUACACCCGUUUCUCCUUGUAGAAGGGACAUGAGGAUCACCCAUGUACUGUACAUUU
[A] 0.03

[Q] # apparent Kd lookup, item GUACUGUAGUGAGGAUAUACGAGUUCGAUAGAACGGCGAUCCAUUUAUACAUGAGGAUCACCCAUGUAGAAGGCACUUCAGUAC
[A] 0.00632

Data credit: the EternaBench riboswitch data
